Target: Acetylcholinesterase (Electrophorus electricus)
Sequence (O42275 whole entry): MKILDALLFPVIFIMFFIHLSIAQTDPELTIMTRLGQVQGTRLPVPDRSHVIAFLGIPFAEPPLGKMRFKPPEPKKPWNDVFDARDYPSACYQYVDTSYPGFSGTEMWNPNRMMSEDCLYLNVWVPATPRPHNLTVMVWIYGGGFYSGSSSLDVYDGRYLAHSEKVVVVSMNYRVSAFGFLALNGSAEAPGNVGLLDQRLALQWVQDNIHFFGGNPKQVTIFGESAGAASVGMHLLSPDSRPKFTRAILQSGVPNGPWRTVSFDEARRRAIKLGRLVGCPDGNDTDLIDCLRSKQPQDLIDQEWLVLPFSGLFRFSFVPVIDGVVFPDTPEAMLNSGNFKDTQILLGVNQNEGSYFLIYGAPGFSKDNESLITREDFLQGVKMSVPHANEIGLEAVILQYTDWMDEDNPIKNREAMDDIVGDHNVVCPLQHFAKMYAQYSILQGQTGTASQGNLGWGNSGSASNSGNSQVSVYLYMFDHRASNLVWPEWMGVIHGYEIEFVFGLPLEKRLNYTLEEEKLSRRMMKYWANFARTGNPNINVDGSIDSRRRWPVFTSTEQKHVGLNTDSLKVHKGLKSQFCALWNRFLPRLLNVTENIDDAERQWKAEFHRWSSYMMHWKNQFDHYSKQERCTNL
# IC50 per entry
Report the figure in nM without appending any unit label.

As a guide, the following entries are already answered.
molecule: Cc1cc2c(cc1CN1CCN(C(c3ccc(F)cc3)c3ccc(F)cc3)CC1)OCO2
tested-on: Acetylcholinesterase (Electrophorus electricus)
IC50 (nM): 1140

molecule: Fc1ccc(C(c2ccc(F)cc2)N2CCN(CCN3CCOCC3)CC2)cc1
tested-on: Acetylcholinesterase (Electrophorus electricus)
IC50 (nM): 253

molecule: Fc1ccc(C(c2ccc(F)cc2)N2CCN(CCN3CCCC3)CC2)cc1
tested-on: Acetylcholinesterase (Electrophorus electricus)
IC50 (nM): 17.6

molecule: Cc1nc2ccccn2c(=O)c1CCN1CCN(C(c2ccc(F)cc2)c2ccc(F)cc2)CC1
tested-on: Acetylcholinesterase (Electrophorus electricus)
IC50 (nM): 2130

molecule: Fc1ccc(C(c2ccc(F)cc2)N2CCN(CCN3CCCCC3)CC2)cc1
tested-on: Acetylcholinesterase (Electrophorus electricus)
IC50 (nM): 135

Exam item: I would be grateful if you could share the reported IC50 for `N#Cc1ccccc1-c1ccc(CN2CCN(C(c3ccc(F)cc3)c3ccc(F)cc3)CC2)cc1` .
Marked response: 70.5

Exam item: Repeat with CC1=C(CCN2CCN(C(c3ccc(F)cc3)c3ccc(F)cc3)CC2)C(=O)C2CCCCC2=N1 (centres undefined)
Marked response: 1210

Exam item: Note, next up: CN(C)C(=O)Oc1cccc([N+](C)(C)C)c1 [NEOSTIGMINE METHYLSULFATE]
Marked response: 41100

Exam item: Subsequent entry: `COc1cc(Br)c(CN2CCN(C(c3ccc(F)cc3)c3ccc(F)cc3)CC2)cc1OC`
Marked response: 715
